These entries and their values trace back to patent US11458091B2.

EXPERIMENT_NOTES: clinical
MEASUREMENT_PARAMETERS: human, in vivo, 3 mg, Mean plasma concentration of nalmefene, 3 mg + […] Intravail IN; Hour 1.0
PARAMETER: concentration at 1 h
# output: number + unit

// concentration at 1 h value for "C=C1CC[C@@]2(O)[C@H]3Cc4ccc(O)c5c4[C@@]2(CCN3CC2CC2)[C@H]1O5" : 2.54 ng/mL

###

EXPERIMENT_NOTES: clinical
MEASUREMENT_PARAMETERS: human, in vivo, 3 mg, Mean plasma concentration of nalmefene, 3 mg + […] Intravail IN; Hour 0.08
PARAMETER: concentration at 0.08 h (ng/mL)
Field: numeric (ng/mL). Do not append units.

// concentration at 0.08 h value for C=C1CC[C@@]2(O)[C@H]3Cc4ccc(O)c5c4[C@@]2(CCN3CC2CC2)[C@H]1O5 [Nalmefene] : 0.931
